// provenance: paper PMC5735979

test-method-notes: Pharmacokinetics study after single oral dose of HP
Assay type: in vivo, C57BL/6 mice
condition-info: male, C57BL/6, mouse, plasma; 0.08 h after single oral dose of 50 mg/kg HP, mice, mean ± SD, n = 5; read-out: Blood drug concentration
# concentration at 0.08 h per record follows
test-readout: concentration at 0.08 h (nM)

              item_smiles             test_readout  readout_number
0  O=c1ccc2cc(O)c(O)cc2o1  concentration at 0.08 h             980
1     O=c1ccc2ccc(O)cc2o1  concentration at 0.08 h            4210

---

test-method-notes: Pharmacokinetics study after single oral dose of HP
Format: in vivo, C57BL/6 mice
condition-info: male, C57BL/6, mouse, plasma; 1 h after single oral dose of 50 mg/kg HP, mice, mean ± SD, n = 5; read-out: Blood drug concentration
test-readout: concentration at 1 h (nM)

              item_smiles  readout_number
0  O=c1ccc2cc(O)c(O)cc2o1            2240
1     O=c1ccc2ccc(O)cc2o1            3360

---

# MRT last per record follows
test-method-notes: Pharmacokinetics study after single oral dose of HP
Assay type: in vivo, C57BL/6 mice
condition-info: male, C57BL/6, mouse; plasma, single oral dose of 50 mg/kg HP, mice, n = 5; read-out: MRT(0−t)
test-readout: MRT last (h)

                                   compound  readout_number
0  O=c1ccc2ccc(O)cc2o1 [Umbelliferone, umbelliferone]            1.58
1  O=c1ccc2cc(O)c(O)cc2o1 [Esculetin, esculetin]            1.82

---

test-method-notes: Pharmacokinetics study after single oral dose of HP
Assay type: in vivo, C57BL/6 mice
condition-info: male, C57BL/6, mouse, in vivo; 1.5 h after single oral dose of 50 mg/kg HP, mice, mean ± SD, n = 5; read-out: Blood drug concentration
test-readout: concentration at 1.5 h (µM)

                                item_smiles  result_unit  readout_number
0  O=c1ccc2ccc(O[C@@H]3O[C@H](CO)[C@@H](O)[C@H](O)[C@H]3O)cc2o1           µM            4.44

---

test-method-notes: Pharmacokinetics study after single oral dose of HP
Format: in vivo, C57BL/6 mice
condition-info: male, C57BL/6, mouse, in vivo; 0.08 h after single oral dose of 50 mg/kg HP, mice, mean ± SD, n = 5; read-out: Blood drug concentration
test-readout: concentration at 0.08 h

In [3]: df
Out[3]:
                                   molecule  result
0  O=c1ccc2ccc(O[C@@H]3O[C@H](CO)[C@@H](O)[C@H](O)[C@H]3O)cc2o1 [Skimmin, skimmin]  7.5 µM

---

test-method-notes: Pharmacokinetics study after single oral dose of HP
Type: in vivo, C57BL/6 mice
condition-info: male, C57BL/6, mouse, in vivo; plasma, single oral dose of 50 mg/kg HP, mice, n = 5; read-out: MRT(0−∞)
test-readout: MRT inf (h)

                                item_smiles  test_readout  readout_number
0  O=c1ccc2ccc(O[C@@H]3O[C@H](CO)[C@@H](O)[C@H](O)[C@H]3O)cc2o1       MRT inf            1.81
